tested on: LPETG (Abz-LPETGK(Dnp)-CONH2); test: In vitro sortase kinetics HPLC assay, LPETG substrate; assay type: biochemical; conditions: Table 2; Sub LPETG; read-out: Km
Measurement Label: Km (µM)

>>> readout_value("SrtA: wild-type Staphylococcus aureus sortase A (SEQ ID NO: 1) (protein, S. aureus) MKKWTNRLMTIAGVVLILVAAYLFAKPHIDNYLHDKDKDEKIEQYDKNVKEQASKDKKQQAKPQIPKDKSKVAGYIEIPDADIKEPVYPGPATPEQLNRGVSFAEENESLDDQNISIAGHTFIDRPNYQFTNLKAAKKGSMVYFKVGNETRKYKMTSIRDVKPTDVEVLDEQKGKDKQLTLITCDDYNEKTGVWEKRKIFVATEVK")
7600
>>> readout_value("eSrtA(4S-9): P94R, N98D, S102C, A104V, A118T, F122A, K134R, F144L, D160N, D165A, I182V, E189F, K190E, K196T (protein) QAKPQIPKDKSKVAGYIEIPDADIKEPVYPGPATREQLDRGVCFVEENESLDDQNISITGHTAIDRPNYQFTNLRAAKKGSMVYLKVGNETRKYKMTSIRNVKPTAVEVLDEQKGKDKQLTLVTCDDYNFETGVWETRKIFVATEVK")
64.7
>>> readout_value("eSrtA(2A-9): P94R, S102C, A104H, E105D, K138P, K152I, N160K, K162H, T164N, D165A, K173E, I182V, K190E, T196S (protein) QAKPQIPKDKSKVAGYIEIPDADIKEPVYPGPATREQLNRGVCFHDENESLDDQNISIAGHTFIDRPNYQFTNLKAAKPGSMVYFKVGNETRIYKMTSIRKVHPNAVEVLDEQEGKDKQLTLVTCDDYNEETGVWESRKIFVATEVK")
1270
>>> readout_value("eSrtA (protein) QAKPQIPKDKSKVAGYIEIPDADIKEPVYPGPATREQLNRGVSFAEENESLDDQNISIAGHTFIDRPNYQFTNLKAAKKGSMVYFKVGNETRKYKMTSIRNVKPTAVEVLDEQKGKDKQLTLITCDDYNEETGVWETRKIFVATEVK")
230
